Entries annotated with measured pIC50
tested on: MycCap cells; assay: Cell viability of MycCap cells; assay type: cell-based; conditions: Mus musculus, Myc-CaP
pIC50: −log10 of the molar value.
attributeMeasured: pIC50

>  <molecularString>
Cn1nc(C(F)(F)F)cc1-c1ccc(OCc2ccc(Cl)cc2)cc1C=O

>  <targetOrTestSystem>
MycCap cells

>  <dataValue>
5.41

$$$$
>  <molecularString>
O=C(O)c1cc(-c2ccc(OCc3ccc(Cl)cc3)c(-c3cc(C(F)(F)F)cc(C(F)(F)F)c3)c2O)n[nH]1

>  <targetOrTestSystem>
MycCap cells

>  <dataValue>
4.17

$$$$
>  <molecularString>
NC(=O)c1ccc(-c2c(OCc3ccc(Cl)cc3)ccc(-c3cc(C(F)(F)F)[nH]n3)c2O)cc1

>  <targetOrTestSystem>
MycCap cells

>  <dataValue>
5.14

$$$$
>  <molecularString>
CCCCCCOc1ccc(-c2cc(C(F)(F)F)n(C)n2)c(O)c1-c1cncc(C#N)c1

>  <targetOrTestSystem>
MycCap cells

>  <dataValue>
4.63

$$$$
>  <molecularString>
CCc1ccc(Oc2c(-c3ccc(OCCc4ccc(Cl)cc4)cc3O)n[nH]c2C(F)(F)F)cc1

>  <targetOrTestSystem>
MycCap cells

>  <dataValue>
5.16

$$$$
>  <molecularString>
N#Cc1ccc(-c2c(OCc3ccc(Cl)cc3)ccc(-c3cc(C(F)(F)F)[nH]n3)c2O)cc1

>  <targetOrTestSystem>
MycCap cells

>  <dataValue>
5.47

$$$$
>  <molecularString>
CCc1ccc(Oc2c(-c3ccc(OCc4ccc(Cl)cc4)cc3O)nn(C)c2C(F)(F)F)cc1

>  <targetOrTestSystem>
MycCap cells

>  <dataValue>
5.47

$$$$
